# Test system: Staphylococcus aureus
# Test Protocol: Antibacterial activity against […] Staphylococcus aureus ATCC 29213 assessed as reduction in bacterial growth measured after 48 hrs by CLSI based broth microdilution method
# Type: functional
Measure Name: MIC

Qu. Check Staphylococcus aureus data and give MIC for "O=C(Nc1ncco1)c1cc(Oc2cccc(F)c2)ccn1" .
Ans. ≥ 256 µg/mL

Qu. Enter measured MIC, system Staphylococcus aureus, for the compound shown: "COc1ccc(Oc2ccnc(C(=O)Nc3ncco3)c2)cc1"
Ans. ≥ 256 µg/mL

Qu. Enter recorded MIC with Staphylococcus aureus for "O=C(Nc1ncco1)c1cc(Oc2ccc(SC(F)(F)F)cc2)ccn1" here.
Ans. ≥ 256 µg/mL

* * *

So I've got a bunch of compounds here, and I need their MIC values.
# Test Protocol: Antibacterial activity against gut Limosilactobacillus-reuteri HM-102 assessed as reduction in bacterial growth measured after 48 hrs by CLSI based broth microdilution method

Qu. Dear colleague, please send me the reported MIC for Cc1ncc([N+](=O)[O-])n1CCO [METRONIDAZOLE] when you can.
Ans. > 32 µg/mL

Qu. For CCc1c(Cl)c(O)c(Cl)c(O)c1C(=O)O[C@H]1[C@H](O)[C@H](OC)[C@H](OC/C2=C\C=C\C[C@H](O)/C(C)=C/[C@H](CC)[C@@H](O[C@@H]3OC(C)(C)[C@@H](OC(=O)C(C)C)[C@H](O)[C@@H]3O)/C(C)=C/C(C)=C/C[C@@H]([C@@H](C)O)OC2=O)O[C@@H]1C [FIDAXOMICIN] , write its MIC.
Ans. > 32 µg/mL

Qu. Given the compound CN[C@H](CC(C)C)C(=O)N[C@H]1C(=O)N[C@@H](CC(N)=O)C(=O)N[C@H]2C(=O)N[C@H]3C(=O)N[C@H](C(=O)N[C@H](C(=O)O)c4cc(O)cc(O)c4-c4cc3ccc4O)[C@H](O)c3ccc(c(Cl)c3)Oc3cc2cc(c3O[C@@H]2O[C@H](CO)[C@@H](O)[C@H](O)[C@H]2O[C@H]2C[C@](C)(N)[C@H](O)[C@H](C)O2)Oc2ccc(cc2Cl)[C@H]1O [VANCOMYCIN] , write its reported MIC.
Ans. > 32 µg/mL

* * *

For each entry below, report its MIC value.
# Tested on: Staphylococcus aureus
# Test Protocol: Antibacterial activity against […] Staphylococcus aureus ATCC 29213 assessed as reduction in bacterial growth measured after 48 hrs by CLSI based broth microdilution method
# Assay type: functional
Number first, unit second.

Qu. Look up and report measured MIC for this entry: "O=C(Nc1ncco1)c1cc(-c2ccc(Cl)cc2)ccn1"
Ans. 128 mg/L

Qu. State its MIC for this compound: "O=C(O)c1ccc2oc(NC(=O)c3cc(-c4cccc(OC(F)(F)F)c4)ccn3)nc2c1"
Ans. 16 mg/L

Qu. Respond only with MIC recorded for "O=C(Nc1ncco1)c1cc(-c2ccc(F)cc2)ccn1"
Ans. 64 mg/L
